Please respond with reported pEC50 for every item in the list.
target: T1, monkey thyroid-stimulating hormone receptor (TSHR) (monkey, UniProt A0A2K5X226 21-764); experiment: flow cytometry (FACS), 293 cells overexpressing monkey TSHR
T1 construct: Overexpressed on 293 cells; also called monkey TSHR
T1 sequence (A0A2K5X226 entry or part of it limits assumed, form in doubt): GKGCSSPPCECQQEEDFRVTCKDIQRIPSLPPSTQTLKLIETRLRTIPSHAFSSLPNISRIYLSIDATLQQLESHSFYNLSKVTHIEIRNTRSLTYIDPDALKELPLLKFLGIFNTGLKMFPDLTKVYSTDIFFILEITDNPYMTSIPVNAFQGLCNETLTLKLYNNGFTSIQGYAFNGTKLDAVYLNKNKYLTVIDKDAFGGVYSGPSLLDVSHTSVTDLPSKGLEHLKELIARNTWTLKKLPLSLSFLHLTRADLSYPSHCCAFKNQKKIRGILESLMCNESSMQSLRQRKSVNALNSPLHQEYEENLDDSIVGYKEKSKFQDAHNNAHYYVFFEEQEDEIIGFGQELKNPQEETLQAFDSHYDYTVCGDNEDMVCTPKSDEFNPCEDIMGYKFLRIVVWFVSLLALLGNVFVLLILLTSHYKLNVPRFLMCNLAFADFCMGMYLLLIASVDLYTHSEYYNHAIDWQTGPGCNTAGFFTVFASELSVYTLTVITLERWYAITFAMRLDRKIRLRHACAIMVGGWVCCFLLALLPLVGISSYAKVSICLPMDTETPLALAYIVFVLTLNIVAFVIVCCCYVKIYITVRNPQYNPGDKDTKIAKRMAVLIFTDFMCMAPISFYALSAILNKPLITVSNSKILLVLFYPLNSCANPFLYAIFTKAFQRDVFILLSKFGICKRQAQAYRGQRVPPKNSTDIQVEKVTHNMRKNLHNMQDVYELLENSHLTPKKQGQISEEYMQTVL
Answers are plain numbers, as −log10 of the molar value.

Example entries begin here.
binder | pEC50
humanized antibody cAb01-VH2-DA-VL2 (antibody, human IgG4 S228P, kappa, V domains shown, Humanized from mAb001) VH: EVQLVESGGGLVKPGGSLRLSCAASGFTLSDYYIYWVRQAPGKGLEWVATISDAVIYTYYADSVKGRFTISRDNAKNSLYLQMNSLRAEDTAVYFCARAYGSSEVMDYWGQGTLVTVSS VL: EIVLTQSPATLSLSPGERATLSCSASSSVSYMHWYQQKPGQAPRRWIYDTSKLASGIPARFSGSGSGTDYTLTISSLEPEDFAVYYCQQWSSNPWTFGGGTKLEIKR | 8.67
humanized antibody cAb01-VH1-DA-VL2 (antibody, human IgG4 S228P, kappa, V domains shown, Humanized from mAb001) VH: EVQLVESGGGLVKPGGSLRLSCAASGFTLSDYYIYWVRQAPGKGLEWVSTISDAVIYTYYADSVKGRFTISRDNAKNSLYLQMNSLRAEDTAVYYCARAYGSSEVMDYWGQGTLVTVSS VL: EIVLTQSPATLSLSPGERATLSCSASSSVSYMHWYQQKPGQAPRRWIYDTSKLASGIPARFSGSGSGTDYTLTISSLEPEDFAVYYCQQWSSNPWTFGGGTKLEIKR | 8.66
humanized antibody cAb01-VH3-DA-VL2 (antibody, human IgG4 S228P, kappa, V domains shown, Humanized from mAb001) VH: EVQLVESGGGLVKPGGSLRLSCAASGFTLSDYYIYWVRQAPGKRLEWVATISDAVIYTYYADSVKGRFTISRDNAKNSLYLQMNSLRAEDTAVYFCARAYGSSEVMDYWGQGTLVTVSS VL: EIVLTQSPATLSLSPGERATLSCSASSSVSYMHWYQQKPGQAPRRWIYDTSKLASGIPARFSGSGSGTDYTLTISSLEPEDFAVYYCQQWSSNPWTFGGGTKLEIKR | 8.64

Could you now consider this next binder?
Query (binder): humanized antibody cAb01-VH1-DA-VL3 (antibody, human IgG4 S228P, kappa, V domains shown, Humanized from mAb001) VH: EVQLVESGGGLVKPGGSLRLSCAASGFTLSDYYIYWVRQAPGKGLEWVSTISDAVIYTYYADSVKGRFTISRDNAKNSLYLQMNSLRAEDTAVYYCARAYGSSEVMDYWGQGTLVTVSS VL: EIVLTQSPATLSLSPGERATLSCSASSSVSYMHWYQQKPGQAPKRWIYDTSKLASGVPARFSGSGSGTDYTLTISSLEPEDFAVYYCQQWSSNPWTFGGGTKLEIKR ; field requested: pEC50 8.64
